Molecular target: T1, recombinant human RANKL (soluble, Gly136-Asp317, N-terminal 10 His, expressed in CHO cells) (human, UniProt O14788 136-317)
T1 construct: residues between secretion signal and His tag are not described; also called hRANKL; hRNAKL
T1 sequence: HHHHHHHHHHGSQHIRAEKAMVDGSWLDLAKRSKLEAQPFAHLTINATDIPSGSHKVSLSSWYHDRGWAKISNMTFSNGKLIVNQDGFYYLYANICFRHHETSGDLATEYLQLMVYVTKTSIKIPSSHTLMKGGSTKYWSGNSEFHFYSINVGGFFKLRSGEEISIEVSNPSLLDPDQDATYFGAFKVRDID
Experiment: direct ELISA, human RANKL coated 1 µg/ml
Overview of reported EC50 across a group of binders:
# do not omit the unit; it follows the number

Consider the worked cases shown below.
Noted for 114-7.19.12 (antibody, V domains shown, Murine monoclonal antibody purified from hybridoma supernatant) VH: QVQLQQSGAELASPGASVKLSCKASGYTFTTYWLQWVKQRPGQGLEWIGAIYPGPGNTKYTQKFKDKATLTADKSASTAYMQLNSLTSEDSAVYYCARRGSRRGIAYWGQGTLVTVSA VL: NIVLTQSPASLAVSLGQRATISCRASESVDSYGRSFMHWYQQRPGQPPTLLIYLASNLESGVPVRFSGSGSRTDFTLTIDPVEADDAATYYCQQDNEDPYTFGGGTKLEIK : its EC50 reads 0.00993 µg/mL

Summary for this binder, 114-5.9.4 (antibody, V domains shown, Murine monoclonal antibody from hybridoma) VH: EVQLQQSGAELVKPGASVKLSCTASGFNLKGTYIHWVKQRPGQGLEWIGRIDPANANTKYDPKFQGKATIRTDTSSNTAYLQLSSLTSEDTAVYFCSSPSGHYDVWFAYWGQGTLVTVSP VL: DIQMTQPTSSLSASLGDTVTISCSASQDISNYLNWYQQKPDGTLKLLIYYTSSLHSGVPSRFSGSGSGTDYSLTISNLEPEDIATYYCQQFSKLPLTFGAGTKLELKR : EC50 is 0.0118 µg/mL

get_value(item= 114-2.402 (antibody, V domains shown, Murine monoclonal antibody from hybridoma) VH: EVQLQQSGTELVKPGASVKLSCTLFGFNIKATYMHWVRQRPEQGLEWIGRIDPPNGNTKYDPKFQDKATIKVDTSSNTAYLQLSSLTSEDTAVYYCAREFNRYDVWLAYWGQGTLVTVSA VL: DIQMTQTTSSLSASLGDRVTISCSASQGVSNYLNWYQQKPDGTVKLLIYSTSSLHSGVPSRFSGSGSGTDYSLTISNLEPEDVATYYCQQYSKLPFTFGSGTKLEIKR , readout=EC50) returns 0.0112 µg/mL

Now for the binder whose EC50 we want.
For 114-5.7.14 (antibody, V domains shown, Murine monoclonal antibody from hybridoma) VH: EVQLQQSGAELVKPGASVKLSCTASGFKIKDTYMHWVRQRPEQGLEWIGRIDSANGNIKYDPKFQGKATITADTSSKTAYLHLSSLTFEDTAVYYCSRPKSNYDFWLPYWGQGTLVTVSA VL: DIQMTQTTSSLSASLGDRVTISCSASQGISNYLNWYQQKPDGTVKLLIYYTSSLHSGVPSRFSGSGSGTDYSLTISNLEPEDIATYYCQQYSKLPLTFGAGTKLELK the binder record lists EC50 as 0.00623 µg/mL

Source of measurements: patent EP3085709A1
